Target: NDM-1 (Klebsiella pneumoniae)
Sequence (C7C422 29-270, looked up, species assumed): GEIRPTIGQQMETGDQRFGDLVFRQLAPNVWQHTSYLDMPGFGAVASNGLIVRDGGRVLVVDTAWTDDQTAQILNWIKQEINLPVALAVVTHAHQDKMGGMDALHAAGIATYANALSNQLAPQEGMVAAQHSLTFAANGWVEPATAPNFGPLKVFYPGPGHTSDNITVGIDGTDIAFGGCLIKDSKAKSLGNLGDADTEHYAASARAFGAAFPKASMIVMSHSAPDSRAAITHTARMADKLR
Assay: Enzyme activity: determination of IC50, fluorescence assay with CCF2-FA substrate
Format: biochemical
Conditions: NDM-1 enzyme 1 pM, CCF2-FA 1.25 μM, 2 hours at 25° C.; read-out: NDM1 IC50
pIC50: −log10 of the molar value.
value type: pIC50

compound: CC(C)(C)[C@H](C(=O)O)[C@H](Cc1ccc(C2=CCNC2)nc1)c1nnn[nH]1.O=C(O)C(F)(F)F [Example 429, 2,2,2-trifluoroacetate]
measured result: 6.11
//
compound: CCC[C@H](C(=O)O)[C@H](Cc1cc(C(F)(F)F)cc(C(F)(F)F)c1)c1nnn[nH]1
measured result: 7.44
//
compound: CCC[C@H](C(=O)O)[C@H](Cc1ccccc1F)c1nnn[nH]1
measured result: 7.43
//
compound: CC(C)C[C@H](C(=O)O)[C@H](Cc1ccc(CN(C)C)c(F)c1)c1nn[nH]n1.O=C(O)C(F)(F)F [Example 443, 2,2,2-trifluoroacetate]
measured result: 6.53
//
compound: CCC[C@H](C(=O)[O-])[C@H](Cc1ccc(C2=CCC[N+](C)(C)C2)nc1)c1nnn[nH]1
measured result: 5.62
//
compound: CCC[C@H](C(=O)O)[C@H](Cc1cccc(-c2ccc(N)nc2)c1)c1nn[nH]n1
measured result: 8.33
//
compound: CC(C)C[C@H](C(=O)O)[C@H](Cc1ccc(CN2CCC(O)C2)c(F)c1)c1nn[nH]n1.O=C(O)C(F)(F)F (stereo partly drawn) [Example 439, 2,2,2-trifluoroacetate]
measured result: 6.65
//
compound: CC(C)C[C@H](C(=O)O)[C@H](Cc1ccc(N2CCC(CNS(C)(=O)=O)CC2)nc1)c1nnn[nH]1
measured result: 7.38
//
compound: CCC[C@H](C(=O)[O-])[C@H](Cc1ccc(C2CC[N+](C)(C)CC2)nc1)c1nnn[nH]1
measured result: 6.19
//
compound: CCC[C@H](C(=O)O)[C@H](Cc1ccc(C2CCN(C(=N)N)C2)cc1)c1nnn[nH]1 (stereo partly drawn)
measured result: 7.16
//
compound: CCC[C@H](C(=O)O)[C@H](Cc1ccc(C(=O)O)cc1)c1nn[nH]n1
measured result: 7.30
//
compound: CCC[C@H](C(=O)O)[C@H](Cc1ccc(CN2CCN(C)CC2)cc1)c1nn[nH]n1
measured result: 6.48
//
compound: CCC[C@H](C(=O)O)[C@H](Cc1ccccc1-c1ccc(C2CCNCC2)cc1)c1nn[nH]n1
measured result: 10.00
//
compound: CCC[C@H](C(=O)O)[C@H](Cc1ccc(C2CCNCC2)cc1)c1nnn[nH]1
measured result: 7.15
//
compound: CCC[C@H](C(=O)[O-])[C@H](Cc1ccc(C2=CC[N+](C)(C)CC2)cc1)c1nnn[nH]1
measured result: 6.36
//
compound: CCC[C@H](C(=O)O)[C@H](Cc1cccc(-c2cccc(CN3CCCCC3)c2)c1)c1nn[nH]n1
measured result: 7.33
//
compound: CCC[C@H](C(=O)O)[C@H](Cc1ccc(C2CCN(C(=N)N)CC2)cc1)c1nnn[nH]1
measured result: 7.49
//
compound: CC(C)C[C@H](C(=O)O)[C@H](Cc1ccc(Oc2ccc(CN)cc2)nc1)c1nn[nH]n1
measured result: 7.46
//
compound: CCC[C@H](C(=O)O)[C@H](Cc1cnc(S(C)(=O)=O)nc1)c1nnn[nH]1
measured result: 5.34
//
compound: CCC[C@H](C(=O)O)[C@H](Cc1ccc(CCN2CCCC2=O)cc1)c1nn[nH]n1
measured result: 7.47
//
compound: CC(C)C[C@H](C(=O)O)[C@H](Cc1ccc(-c2ccc(C(N)=O)cc2)c(F)c1)c1nn[nH]n1
measured result: 8.36
//
compound: CCC[C@H](C(=O)O)[C@H](Cc1cccc(N2CCN(C)CC2)c1)c1nn[nH]n1
measured result: 6.19
//
compound: CCC[C@H](C(=O)O)C(Cc1cccc(C(F)(F)F)c1)c1nnn[nH]1 (stereo in doubt)
measured result: 7.85
//
compound: CC(C)C[C@H](C(=O)O)[C@H](Cc1ccc(Oc2ccc(CCN)cc2)nc1)c1nn[nH]n1 [Example 371]
measured result: 7.03
//
compound: CCC[C@H](C(=O)O)[C@H](Cc1ccc(-c2ccc(-c3nnn[nH]3)cc2)cc1)c1nnn[nH]1
measured result: 8.96
//
compound: CC(C)C[C@H](C(=O)O)[C@H](Cc1ccc(N[C@@H]2CC[C@H](N)C2)nc1)c1nnn[nH]1
measured result: 6.35
//
compound: CC(C)C[C@H](C(=O)O)[C@H](Cc1ccc(NC2CNCc3ccccc32)nc1)c1nnn[nH]1 (stereo partly drawn)
measured result: 6.46
//
compound: CCC[C@H](C(=O)O)[C@H](Cc1cccc(-c2ccccc2CN2CCCCC2)c1)c1nn[nH]n1
measured result: 6.77
//
compound: CCC[C@H](C(=O)O)[C@H](Cc1ccc(-c2cnc(CO)s2)cc1)c1nnn[nH]1
measured result: 8.08
//
compound: CC(C)C[C@H](C(=O)O)[C@H](Cc1ccc(Oc2cccc3c2CCNC3)nc1)c1nn[nH]n1
measured result: 6.89
